ASSAY_METHOD_TEXT: Particle size testing by laser diffraction (Malvern MS2000 laser particle size analyzer, dispersant water)
Format: physicochemical
REPORTED_CONDITIONS: laser diffraction, dispersant water
Exercise: state measured Span (β) for each of the compounds provided.
Answers are plain numbers.

Recorded Span (β) (compound CCCCCCOC(=O)c1ccccc1C(=O)c1ccc(N(CC)CC)cc1O [Example 5] ): 1.944

Recorded Span (β) (compound CCCCCCOC(=O)c1ccccc1C(=O)c1ccc(N(CC)CC)cc1O [Example 1] ): 2.008

Please look at the following compound next.
Recorded Span (β) (compound CCCCCCOC(=O)c1ccccc1C(=O)c1ccc(N(CC)CC)cc1O [Example 4] ): 1.998
